# Assayed Target: UniProtKB P00521
# Sequence (P00521 115-385): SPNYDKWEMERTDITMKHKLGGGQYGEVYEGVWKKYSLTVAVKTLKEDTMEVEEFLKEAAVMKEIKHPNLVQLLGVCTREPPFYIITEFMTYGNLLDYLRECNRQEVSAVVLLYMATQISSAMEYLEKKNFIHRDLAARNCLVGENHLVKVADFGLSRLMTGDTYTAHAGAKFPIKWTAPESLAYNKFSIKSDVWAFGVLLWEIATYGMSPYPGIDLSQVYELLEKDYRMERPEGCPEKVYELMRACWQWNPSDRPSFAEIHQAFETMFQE
Could you please report measured IC50 for the items listed next?
Report the figure in nM without appending any unit label.

[in] Please give the measured IC50 for this compound: "CCOc1cccc(Nc2[nH]nc3c2Cc2cc(OC)c(OC)cc2-3)c1"
[out] 51

[in] Continue with "COc1cc2c(cc1OCCCN1CCCC1)Cc1c-2n[nH]c1Nc1ccc(F)c(Cl)c1"
[out] 56

[in] Continue with COc1cc2c(cc1OC)C(C)c1c-2n[nH]c1Nc1cccc(F)c1 (stereo not drawn)
[out] 35

###

Could you please report measured inhibition at 10 µM for the items listed next?
# Assayed Target: PDGF-receptor beta enzyme comprising the tyrosine kinase domain (Homo sapiens)
# Construct: from amino acid 545 to 1106 of GenBank Access NO: AAA36427
# Procedure Text: Inhibition of PDGF-receptor kinase activity (cell-free, PLC1 peptide, 33P Flashplate)
# Type: biochemical
# Condition Parameters: PDGF-R kinase activity; compound at 10 uM; read-out: Percent Inhibition @ 10 uM
Report the figure in % without appending any unit label.

[in] Record lookup: for PDGF-receptor beta enzyme comprising the tyrosine kinase domain (Homo sapiens), what inhibition at 10 µM belongs to "COc1cc2c(cc1OC)-c1n[nH]c(NCc3ccccc3C(F)(F)F)c1C2" ?
[out] 58

[in] Continue with "COc1cc2c(cc1OC)-c1n[nH]c(NCc3ccc(F)cc3)c1C2"
[out] 93

[in] Continue with "COc1cc2c(c(NC(C)=O)c1OC)Cc1c-2n[nH]c1Nc1cccc(F)c1"
[out] 102

[in] Continue with "COc1cccc2c1Cc1c-2n[nH]c1Nc1cccc(OC(F)(F)F)c1"
[out] 27.5

[in] Continue with "CCOc1cccc(Nc2[nH]nc3c2Cc2cc(OCCCO)c(OCCCO)cc2-3)c1"
[out] 98.5

###

# Assayed Target: PDGF-receptor beta enzyme comprising the tyrosine kinase domain (Homo sapiens, UniProt P09619)
# Construct: from amino acid 545 to 1106 of GenBank Access NO: AAA36427
# Sequence (P09619 545-1106): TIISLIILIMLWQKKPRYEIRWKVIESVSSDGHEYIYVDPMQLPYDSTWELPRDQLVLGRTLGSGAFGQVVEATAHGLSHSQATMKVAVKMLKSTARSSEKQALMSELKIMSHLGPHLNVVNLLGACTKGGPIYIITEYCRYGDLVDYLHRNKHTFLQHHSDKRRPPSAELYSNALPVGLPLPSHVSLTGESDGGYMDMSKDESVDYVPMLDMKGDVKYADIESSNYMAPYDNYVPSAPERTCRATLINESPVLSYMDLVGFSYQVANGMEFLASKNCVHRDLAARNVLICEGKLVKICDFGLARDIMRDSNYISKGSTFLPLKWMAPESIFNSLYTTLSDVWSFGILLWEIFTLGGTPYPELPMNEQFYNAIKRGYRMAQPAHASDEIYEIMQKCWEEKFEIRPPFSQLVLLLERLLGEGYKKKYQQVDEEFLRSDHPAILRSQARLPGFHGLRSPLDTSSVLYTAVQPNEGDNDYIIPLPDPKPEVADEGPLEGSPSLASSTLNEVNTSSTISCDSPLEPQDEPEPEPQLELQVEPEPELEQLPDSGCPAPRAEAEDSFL
# Procedure Text: Inhibition of PDGF-receptor kinase activity (cell-free, PLC1 peptide, 33P Flashplate)
# Format: biochemical
# Condition Parameters: PDGF-R kinase activity; compound at 10 uM; read-out: Percent Inhibition @ 10 uM
Could you please report measured inhibition at 10 µM for the items listed next?
Report the figure in % without appending any unit label.

[in] Please give the measured inhibition at 10 µM for this compound: CCOc1cc2c(cc1OCC)C(C)c1c-2n[nH]c1Nc1cccc(F)c1 (stereo not drawn) [Compound 344]
[out] 100

[in] Continue with OCC(O)COc1cccc2c1Cc1c-2n[nH]c1NCc1c(Cl)cccc1Cl (stereo not drawn) [Compound 479]
[out] 94.5

[in] Continue with Clc1ccc2c(c1)Cc1c-2n[nH]c1Nc1ccccc1 [Compound 21]
[out] 103

[in] Continue with COC(=O)Cn1nc(Nc2cccc(F)c2)c2c1-c1cc(OC)c(OC)cc1C2 [Compound 509]
[out] 30.5

[in] Continue with COc1cc2c(cc1OC)-c1n[nH]c(Nc3cc(OC)c(OC)c(OC)c3)c1C2 [Compound 42]
[out] 85

[in] Continue with COc1cc2c(cc1OCCCN1CCOCC1)Cc1c-2n[nH]c1Nc1ccc(F)c(Cl)c1 [Compound 179]
[out] 92

###

# Assayed Target: PDGF-receptor beta enzyme comprising the tyrosine kinase domain (Homo sapiens, UniProt P09619)
# Construct: from amino acid 545 to 1106 of GenBank Access NO: AAA36427
# Procedure Text: Inhibition of PDGF-receptor kinase activity (cell-free, PLC1 peptide, 33P Flashplate)
# Assay type: biochemical
# Condition Parameters: PDGF-R kinase activity; compound at 10 uM; read-out: Percent Inhibition @ 10 uM
# Method: PDGF-R kinase activity was assayed by its ability to phosphorylate one of its target proteins, PLCγ, in a cell-free system, in particular, a PLC1 peptide comprising the tyrosine residue where the phosphorylation occurs was used for the assay. […] In order to test the potency of inhibition of present compounds, an IC50 for an individual compound was measured using the above procedure. […]
Rule: inhibition at 10 µM of 70% or more gives MET; anything lower gives NOT MET.

[in] Reported inhibition at 10 µM reaches at least 70% for COc1cc2c(cc1OC)C(C(C)C)c1c-2n[nH]c1Nc1cccc(Br)c1 (centres unmarked) ?
[out] NOT MET

[in] Continue with "Cc1cccc2c1Cc1c-2n[nH]c1Nc1cccc(F)c1"
[out] MET

[in] Continue with "COc1cccc(Nc2[nH]nc3c2Cc2cc(N)ccc2-3)c1"
[out] MET

[in] Continue with "CCOc1cc2c(cc1OCC)-c1n[nH]c(NCc3ccccc3F)c1C2"
[out] MET

[in] Continue with "COc1cc2c(cc1OC)-c1n[nH]c(Nc3ccc4c(c3)OCO4)c1C2"
[out] MET

[in] Continue with COc1cc2c(cc1OC)C(C)c1c-2n[nH]c1Nc1cc(F)cc(F)c1 (centres unmarked)
[out] MET

[in] Continue with COc1cc2c(cc1OC)C(C)c1c-2n[nH]c1Nc1cccc(Br)c1 (single isomer, unassigned) [Compound 568]
[out] MET

[in] Continue with "COc1cc2c(cc1OC)-c1n[nH]c(NCc3cc(F)ccc3F)c1C2"
[out] NOT MET
